Below: a set of entries, each annotated with reported IC50.
Target: Serine/threonine-protein kinase B-raf (Homo sapiens, UniProt P15056, V600E)
Sequence (P15056 2-766 V600E limits assumed): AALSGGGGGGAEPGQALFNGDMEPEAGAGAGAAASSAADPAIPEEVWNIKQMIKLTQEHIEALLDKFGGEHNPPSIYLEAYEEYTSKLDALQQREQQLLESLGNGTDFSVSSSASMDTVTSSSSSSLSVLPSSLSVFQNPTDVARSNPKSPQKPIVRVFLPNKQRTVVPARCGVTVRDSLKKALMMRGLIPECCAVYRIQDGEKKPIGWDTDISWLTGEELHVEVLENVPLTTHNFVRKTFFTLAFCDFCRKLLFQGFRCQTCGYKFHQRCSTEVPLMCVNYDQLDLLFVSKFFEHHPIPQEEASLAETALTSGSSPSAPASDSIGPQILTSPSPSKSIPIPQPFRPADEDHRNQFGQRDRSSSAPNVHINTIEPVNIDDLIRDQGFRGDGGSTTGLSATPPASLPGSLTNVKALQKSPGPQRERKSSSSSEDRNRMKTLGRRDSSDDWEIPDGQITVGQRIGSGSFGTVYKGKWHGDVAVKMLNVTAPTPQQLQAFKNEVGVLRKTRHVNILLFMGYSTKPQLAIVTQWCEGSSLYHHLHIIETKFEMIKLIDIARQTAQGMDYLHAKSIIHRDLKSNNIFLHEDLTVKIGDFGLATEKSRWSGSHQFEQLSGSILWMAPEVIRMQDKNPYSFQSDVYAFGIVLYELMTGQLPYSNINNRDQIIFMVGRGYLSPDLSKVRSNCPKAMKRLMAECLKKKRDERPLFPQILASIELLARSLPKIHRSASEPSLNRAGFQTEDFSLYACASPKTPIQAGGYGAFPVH
Assay: Inhibition of recombinant B-RAF-V600E mutant
reported metric: IC50

- compound: "COc1cc(O)c2c(c1)C(=O)c1cc(C)c(O)cc1C2=O"
  measurement: "22.5 µM"
- compound: "COc1cc2c(c(O)c1-c1c(OC)cc(O)c3c1C(=O)C1=C(C3=O)[C@H](O)[C@@H](O)[C@@](C)(O)[C@@H]1O)C(=O)c1cc(O)c(C)cc1C2=O (single isomer, unassigned; atropisomer)"
  measurement: "10.5 µM"
- compound: "COc1cc(O)c2c(c1)C(=O)C1=C(C2=O)[C@H](O)[C@@H](O)[C@@](C)(O)[C@@H]1O"
  measurement: "> 29.7 µM"

----------
# pIC50 per record follows
Target: Serine/threonine-protein kinase PLK4 (Homo sapiens)
Sequence (O00444 whole entry): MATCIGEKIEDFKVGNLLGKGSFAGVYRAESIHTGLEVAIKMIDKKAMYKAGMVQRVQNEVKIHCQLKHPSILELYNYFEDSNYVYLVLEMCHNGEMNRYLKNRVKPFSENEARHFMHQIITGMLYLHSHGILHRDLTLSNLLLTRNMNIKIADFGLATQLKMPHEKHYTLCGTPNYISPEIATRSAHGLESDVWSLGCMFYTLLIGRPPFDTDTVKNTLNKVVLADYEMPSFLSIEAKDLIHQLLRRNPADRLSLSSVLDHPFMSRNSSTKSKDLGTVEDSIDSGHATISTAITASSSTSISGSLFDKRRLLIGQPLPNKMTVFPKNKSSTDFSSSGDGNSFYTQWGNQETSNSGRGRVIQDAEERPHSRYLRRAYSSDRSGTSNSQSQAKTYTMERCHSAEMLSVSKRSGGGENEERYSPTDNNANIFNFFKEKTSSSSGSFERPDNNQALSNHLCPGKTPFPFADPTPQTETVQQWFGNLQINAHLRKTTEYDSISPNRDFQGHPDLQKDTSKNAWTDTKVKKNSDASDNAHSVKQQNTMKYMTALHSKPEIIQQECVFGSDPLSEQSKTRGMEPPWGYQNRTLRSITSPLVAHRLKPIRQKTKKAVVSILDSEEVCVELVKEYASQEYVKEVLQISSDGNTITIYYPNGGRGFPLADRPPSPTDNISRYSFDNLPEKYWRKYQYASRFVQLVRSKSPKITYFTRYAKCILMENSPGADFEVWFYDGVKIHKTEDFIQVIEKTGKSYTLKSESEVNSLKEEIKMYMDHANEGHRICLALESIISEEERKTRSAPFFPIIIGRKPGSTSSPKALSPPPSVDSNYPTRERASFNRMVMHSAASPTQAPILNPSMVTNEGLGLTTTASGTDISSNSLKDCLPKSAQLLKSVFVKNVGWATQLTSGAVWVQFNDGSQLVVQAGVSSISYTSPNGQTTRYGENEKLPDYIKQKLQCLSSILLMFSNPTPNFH
Experiment: Inhibition of recombinant SAK
pIC50: −log10 of the molar value.

- compound: "COc1cc(O)c2c(c1)C(=O)c1cc(C)c(O)cc1C2=O"
  pIC50: 4.82
- compound: "COc1cc(O)c2c(c1)C(=O)c1cc(C)c(O)c(O)c1C2=O"
  pIC50: 4.83
- compound: "COc1cc2c(c(O)c1-c1c(OC)cc(O)c3c1C(=O)C1=C(C3=O)[C@H](O)[C@@H](O)[C@@](C)(O)[C@@H]1O)C(=O)c1cc(O)c(C)cc1C2=O (single isomer, unassigned; atropisomer)"
  pIC50: 5.65
- compound: "COc1cc(O)c2c(c1)C(=O)C1=C(C2=O)[C@H](O)[C@@H](O)[C@@](C)(O)[C@@H]1O"
  pIC50: 5.13

----------
Biological target: Receptor tyrosine-protein kinase erbB-2 (Homo sapiens)
Sequence (P04626 whole entry): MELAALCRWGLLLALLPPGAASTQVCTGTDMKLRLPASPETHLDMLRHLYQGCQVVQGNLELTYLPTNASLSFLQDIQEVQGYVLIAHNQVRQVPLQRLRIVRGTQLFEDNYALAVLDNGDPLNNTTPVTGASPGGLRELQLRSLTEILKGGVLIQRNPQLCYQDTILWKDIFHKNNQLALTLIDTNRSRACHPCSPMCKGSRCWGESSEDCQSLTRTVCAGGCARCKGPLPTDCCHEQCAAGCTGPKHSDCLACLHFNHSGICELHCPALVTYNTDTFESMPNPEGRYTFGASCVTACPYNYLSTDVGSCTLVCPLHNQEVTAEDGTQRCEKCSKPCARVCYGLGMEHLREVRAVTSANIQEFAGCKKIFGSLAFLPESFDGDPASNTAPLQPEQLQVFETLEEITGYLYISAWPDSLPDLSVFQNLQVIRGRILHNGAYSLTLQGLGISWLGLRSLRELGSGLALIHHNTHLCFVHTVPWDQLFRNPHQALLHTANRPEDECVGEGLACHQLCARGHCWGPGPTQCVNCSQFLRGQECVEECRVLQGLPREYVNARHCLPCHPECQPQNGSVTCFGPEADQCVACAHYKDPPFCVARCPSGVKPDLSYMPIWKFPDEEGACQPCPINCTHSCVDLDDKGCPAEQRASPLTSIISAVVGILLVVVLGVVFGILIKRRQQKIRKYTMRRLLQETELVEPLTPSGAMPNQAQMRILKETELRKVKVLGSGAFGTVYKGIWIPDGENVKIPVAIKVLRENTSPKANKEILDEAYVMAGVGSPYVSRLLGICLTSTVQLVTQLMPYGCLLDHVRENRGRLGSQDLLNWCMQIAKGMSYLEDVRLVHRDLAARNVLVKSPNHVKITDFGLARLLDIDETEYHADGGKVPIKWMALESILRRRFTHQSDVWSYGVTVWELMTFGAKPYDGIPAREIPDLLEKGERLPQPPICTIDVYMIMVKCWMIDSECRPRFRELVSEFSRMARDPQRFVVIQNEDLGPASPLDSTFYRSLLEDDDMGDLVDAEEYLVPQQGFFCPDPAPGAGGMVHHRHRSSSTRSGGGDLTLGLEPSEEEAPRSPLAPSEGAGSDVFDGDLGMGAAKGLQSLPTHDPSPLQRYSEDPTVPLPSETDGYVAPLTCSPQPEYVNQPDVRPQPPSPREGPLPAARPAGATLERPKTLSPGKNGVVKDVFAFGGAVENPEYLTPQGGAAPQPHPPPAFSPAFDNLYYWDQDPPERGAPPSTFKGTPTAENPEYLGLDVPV
Assay: Inhibition of recombinant ERBB2

- compound: "COc1cc(O)c2c(c1)C(=O)C1=C(C2=O)[C@H](O)[C@@H](O)[C@@](C)(O)[C@@H]1O"
  relation sign: ">"
  IC50 / µM: 29.7
- compound: "COc1cc2c(c(O)c1-c1c(OC)cc(O)c3c1C(=O)C1=C(C3=O)[C@H](O)[C@@H](O)[C@@](C)(O)[C@@H]1O)C(=O)c1cc(O)c(C)cc1C2=O (single isomer, unassigned; atropisomer)"
  relation sign: "="
  IC50 / µM: 6.79
- compound: "COc1cc(O)c2c(c1)C(=O)c1cc(C)c(O)cc1C2=O"
  relation sign: "="
  IC50 / µM: 25.7

----------
Biological target: Vascular endothelial growth factor receptor 3 (Homo sapiens, UniProt P35916)
Sequence (P35916 whole entry): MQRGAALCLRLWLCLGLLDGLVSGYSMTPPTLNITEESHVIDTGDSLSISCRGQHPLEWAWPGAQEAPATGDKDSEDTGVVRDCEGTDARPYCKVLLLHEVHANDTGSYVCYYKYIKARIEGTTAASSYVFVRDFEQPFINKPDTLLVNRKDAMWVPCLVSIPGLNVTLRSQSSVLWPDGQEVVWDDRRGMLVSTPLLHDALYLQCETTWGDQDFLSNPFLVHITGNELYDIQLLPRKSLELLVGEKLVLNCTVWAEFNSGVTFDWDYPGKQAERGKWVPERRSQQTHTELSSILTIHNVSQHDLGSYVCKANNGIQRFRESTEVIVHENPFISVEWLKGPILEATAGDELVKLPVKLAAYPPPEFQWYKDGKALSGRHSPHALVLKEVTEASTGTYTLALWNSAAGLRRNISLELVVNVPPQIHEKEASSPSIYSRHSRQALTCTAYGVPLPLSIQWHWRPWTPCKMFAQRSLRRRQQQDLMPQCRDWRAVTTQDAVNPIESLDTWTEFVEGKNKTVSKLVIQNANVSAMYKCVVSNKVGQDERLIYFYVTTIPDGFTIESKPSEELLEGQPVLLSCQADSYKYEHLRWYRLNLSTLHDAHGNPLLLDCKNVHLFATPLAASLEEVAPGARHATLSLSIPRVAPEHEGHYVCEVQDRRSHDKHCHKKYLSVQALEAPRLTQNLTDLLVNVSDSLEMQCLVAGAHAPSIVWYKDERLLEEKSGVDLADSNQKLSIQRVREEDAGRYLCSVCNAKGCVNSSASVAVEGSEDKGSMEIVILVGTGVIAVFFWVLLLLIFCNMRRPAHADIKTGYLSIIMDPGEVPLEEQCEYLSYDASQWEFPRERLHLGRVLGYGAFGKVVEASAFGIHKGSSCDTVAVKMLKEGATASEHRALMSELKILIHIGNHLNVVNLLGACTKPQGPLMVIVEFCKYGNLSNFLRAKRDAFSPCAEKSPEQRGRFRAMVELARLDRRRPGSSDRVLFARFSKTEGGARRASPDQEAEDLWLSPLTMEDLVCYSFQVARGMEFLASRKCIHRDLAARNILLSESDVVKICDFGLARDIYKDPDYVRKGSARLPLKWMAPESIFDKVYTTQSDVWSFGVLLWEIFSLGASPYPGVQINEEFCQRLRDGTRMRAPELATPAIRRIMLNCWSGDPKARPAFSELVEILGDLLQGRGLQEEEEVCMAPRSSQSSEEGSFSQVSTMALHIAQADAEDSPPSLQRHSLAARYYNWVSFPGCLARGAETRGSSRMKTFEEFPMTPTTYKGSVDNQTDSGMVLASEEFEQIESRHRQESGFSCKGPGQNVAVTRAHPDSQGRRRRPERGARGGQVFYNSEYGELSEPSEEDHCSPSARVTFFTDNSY
Assay: Inhibition of recombinant VEGFR3
Parameter: IC50. Scope: all listed entries.
reported metric: IC50 (µM)

- compound: "COc1cc(O)c2c(c1)C(=O)C1=C(C2=O)[C@H](O)[C@@H](O)[C@@](C)(O)[C@@H]1O"
  reported metric: "IC50"
  units: "µM"
  measurement: 29.4
- compound: "COc1cc(O)c2c(c1)C(=O)c1cc(C)c(O)c(O)c1C2=O"
  reported metric: "IC50"
  units: "µM"
  measurement: 8.99
- compound: "COc1cc2c(c(O)c1-c1c(OC)cc(O)c3c1C(=O)C1=C(C3=O)[C@H](O)[C@@H](O)[C@@](C)(O)[C@@H]1O)C(=O)c1cc(O)c(C)cc1C2=O (single isomer, unassigned; atropisomer)"
  reported metric: "IC50"
  units: "µM"
  measurement: 6.47

----------
Target: Platelet-derived growth factor receptor beta (Homo sapiens, UniProt P09619)
Assay: Inhibition of recombinant PDGFRbeta
pIC50: −log10 of the molar value.

- compound: "COc1cc(O)c2c(c1)C(=O)C1=C(C2=O)[C@H](O)[C@@H](O)[C@@](C)(O)[C@@H]1O [ALTERSOLANOL A]"
  system tested: "Platelet-derived growth factor receptor beta (Homo sapiens, UniProt P09619)"
  pIC50: "< 4.53"

----------
Biological target: Ephrin type-B receptor 4 (Homo sapiens)
Assay: Inhibition of recombinant EPHB4
pIC50: −log10 of the molar value.
reported metric: pIC50

- molecule: "COc1cc2c(c(O)c1-c1c(OC)cc(O)c3c1C(=O)C1=C(C3=O)[C@H](O)[C@@H](O)[C@@](C)(O)[C@@H]1O)C(=O)c1cc(O)c(C)cc1C2=O (single isomer, unassigned; atropisomer)"
  relation sign: "="
  measurement: 5.17
- molecule: "COc1cc(O)c2c(c1)C(=O)C1=C(C2=O)[C@H](O)[C@@H](O)[C@@](C)(O)[C@@H]1O"
  relation sign: "<"
  measurement: 4.53

----------
Biological target: Vascular endothelial growth factor receptor 2 (Homo sapiens, UniProt P35968)
Sequence (P35968 whole entry): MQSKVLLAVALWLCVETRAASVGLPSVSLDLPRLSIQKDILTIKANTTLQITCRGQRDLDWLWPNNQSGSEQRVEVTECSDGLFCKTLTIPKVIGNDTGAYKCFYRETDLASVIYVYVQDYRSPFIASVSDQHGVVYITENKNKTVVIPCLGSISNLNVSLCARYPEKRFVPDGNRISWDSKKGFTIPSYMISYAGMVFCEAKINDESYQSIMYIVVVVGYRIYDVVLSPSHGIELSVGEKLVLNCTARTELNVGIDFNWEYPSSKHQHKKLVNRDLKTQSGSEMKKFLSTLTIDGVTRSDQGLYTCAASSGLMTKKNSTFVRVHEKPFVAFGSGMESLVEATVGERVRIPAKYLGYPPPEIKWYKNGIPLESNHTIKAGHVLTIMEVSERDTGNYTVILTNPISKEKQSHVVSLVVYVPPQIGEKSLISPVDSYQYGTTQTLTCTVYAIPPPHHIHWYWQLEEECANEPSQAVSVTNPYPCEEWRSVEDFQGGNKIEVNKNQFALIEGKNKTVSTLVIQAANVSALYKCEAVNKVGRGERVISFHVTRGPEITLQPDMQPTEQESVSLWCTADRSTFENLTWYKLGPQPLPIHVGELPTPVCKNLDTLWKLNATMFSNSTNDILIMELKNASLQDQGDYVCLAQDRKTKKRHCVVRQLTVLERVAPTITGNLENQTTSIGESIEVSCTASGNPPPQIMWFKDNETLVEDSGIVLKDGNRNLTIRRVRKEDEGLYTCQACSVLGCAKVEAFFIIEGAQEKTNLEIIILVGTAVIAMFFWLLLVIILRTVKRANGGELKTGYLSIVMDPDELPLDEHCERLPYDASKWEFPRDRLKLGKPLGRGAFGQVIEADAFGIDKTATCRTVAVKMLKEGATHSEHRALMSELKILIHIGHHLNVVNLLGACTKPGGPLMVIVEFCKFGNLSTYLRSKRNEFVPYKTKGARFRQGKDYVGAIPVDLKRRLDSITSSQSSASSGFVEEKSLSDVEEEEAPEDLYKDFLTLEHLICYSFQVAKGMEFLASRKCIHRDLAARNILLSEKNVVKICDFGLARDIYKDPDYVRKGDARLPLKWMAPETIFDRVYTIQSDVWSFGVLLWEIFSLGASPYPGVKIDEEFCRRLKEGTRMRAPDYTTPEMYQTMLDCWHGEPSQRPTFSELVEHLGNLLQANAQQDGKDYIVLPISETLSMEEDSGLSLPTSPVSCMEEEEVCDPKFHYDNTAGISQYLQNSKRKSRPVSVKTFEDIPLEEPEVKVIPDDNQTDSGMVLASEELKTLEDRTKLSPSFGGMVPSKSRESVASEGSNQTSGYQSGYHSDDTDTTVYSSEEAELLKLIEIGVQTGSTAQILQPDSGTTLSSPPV
Experiment: Inhibition of recombinant VEGFR2
pIC50: −log10 of the molar value.
reported metric: pIC50

- compound: "COc1cc2c(c(O)c1-c1c(OC)cc(O)c3c1C(=O)C1=C(C3=O)[C@H](O)[C@@H](O)[C@@](C)(O)[C@@H]1O)C(=O)c1cc(O)c(C)cc1C2=O (single isomer, unassigned; atropisomer)"
  system tested: "Vascular endothelial growth factor receptor 2 (Homo sapiens, UniProt P35968)"
  reported metric: "pIC50"
  measurement: 5.26
- compound: "COc1cc(O)c2c(c1)C(=O)c1cc(C)c(O)c(O)c1C2=O"
  system tested: "Vascular endothelial growth factor receptor 2 (Homo sapiens, UniProt P35968)"
  reported metric: "pIC50"
  measurement: 5.40
- compound: "COc1cc(O)c2c(c1)C(=O)c1cc(C)c(O)cc1C2=O"
  system tested: "Vascular endothelial growth factor receptor 2 (Homo sapiens, UniProt P35968)"
  reported metric: "pIC50"
  measurement: 5.07
- compound: "COc1cc(O)c2c(c1)C(=O)C1=C(C2=O)[C@H](O)[C@@H](O)[C@@](C)(O)[C@@H]1O"
  system tested: "Vascular endothelial growth factor receptor 2 (Homo sapiens, UniProt P35968)"
  reported metric: "pIC50"
  measurement: 4.66

----------
Target: UniProt:P24941
Assay: Inhibition of recombinant CDK2/CycA
pIC50: −log10 of the molar value.
Entries and their pIC50
reported metric: pIC50

- compound: "COc1cc2c(c(O)c1-c1c(OC)cc(O)c3c1C(=O)C1=C(C3=O)[C@H](O)[C@@H](O)[C@@](C)(O)[C@@H]1O)C(=O)c1cc(O)c(C)cc1C2=O (single isomer, unassigned; atropisomer)"
  measurement: "< 4.79"
- compound: "COc1cc(O)c2c(c1)C(=O)C1=C(C2=O)[C@H](O)[C@@H](O)[C@@](C)(O)[C@@H]1O"
  measurement: "< 4.53"

----------
Target: Proto-oncogene tyrosine-protein kinase Src (Homo sapiens, UniProt P12931)
Test: Inhibition of recombinant SRC
pIC50: −log10 of the molar value.
Below, each entry is listed alongside its reported pIC50.

- molecule: "COc1cc2c(c(O)c1-c1c(OC)cc(O)c3c1C(=O)C1=C(C3=O)[C@H](O)[C@@H](O)[C@@](C)(O)[C@@H]1O)C(=O)c1cc(O)c(C)cc1C2=O (single isomer, unassigned; atropisomer)"
  pIC50: 5.56
- molecule: "COc1cc(O)c2c(c1)C(=O)C1=C(C2=O)[C@H](O)[C@@H](O)[C@@](C)(O)[C@@H]1O"
  pIC50: 5.15
- molecule: "COc1cc(O)c2c(c1)C(=O)c1cc(C)c(O)c(O)c1C2=O"
  pIC50: 5.22
